Protein target, amino acids: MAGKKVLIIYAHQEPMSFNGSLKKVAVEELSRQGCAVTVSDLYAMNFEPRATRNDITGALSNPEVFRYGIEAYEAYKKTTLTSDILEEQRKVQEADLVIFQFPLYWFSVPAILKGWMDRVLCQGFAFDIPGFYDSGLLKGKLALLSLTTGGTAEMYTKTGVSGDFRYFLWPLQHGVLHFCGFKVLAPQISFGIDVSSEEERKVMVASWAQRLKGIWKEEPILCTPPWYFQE
pIC50: −log10 of the molar value.
measured property: pIC50

smiles structure: COc1ccc2[nH]cc(CCNC(C)=O)c2c1
measured property: pIC50
measured value: 7.35

Data credit: patent US6465660B1
